// data source = paper PMC10397247

# Study Target: T1, 4H2614-AA
# T1 chain: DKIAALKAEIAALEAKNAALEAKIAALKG
# Assay Name: two-hybrid library CCmax;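 note: natural log of median RNA to DNA barcode read ratio; higher means stronger binding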
# Conditions: mean of both orientations

{"Binder": "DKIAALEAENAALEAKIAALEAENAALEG [4H2211-AA]", "interaction score": -1.44}
{"Binder": "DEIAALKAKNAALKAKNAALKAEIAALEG [4H1017-AA]", "interaction score": 0.0732}
{"Binder": "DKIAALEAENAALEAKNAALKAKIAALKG [4H2238-AA]", "interaction score": -1.25}
{"Binder": "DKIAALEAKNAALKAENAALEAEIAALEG [4H2513-AA]", "interaction score": 0.461}
{"Binder": "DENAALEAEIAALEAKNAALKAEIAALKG [4H1082-AA]", "interaction score": 0.814}
{"Binder": "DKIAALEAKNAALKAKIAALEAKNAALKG [4H2536-AA]", "interaction score": -1.61}
{"Binder": "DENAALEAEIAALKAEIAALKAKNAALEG [4H1103-AA]", "interaction score": -1.01}
